Test system: SF-268
PROTOCOL_SUMMARY: NCI tumour cell line growth inhibition, 48 h
The source made the active and inactive calls. Cut-off read from the data, not from the text of the source: active = GI50 up to about 1.1 µM and inactive = higher.
MEASUREMENT_LABEL: GI50

Dear colleague, could you send me GI50 for each of the items below? Thanks.
1. N#Cc1ccccc1C#C/C=C\C#Cc1ccccn1
2. O=C(Nc1ccc2ccccc2c1)Nn1cnnc1
3. Cc1ccc([S+]([O-])C[C@](NC(=O)OCc2ccccc2)(Sc2ccccc2)C(F)F)cc1 (stereo partly drawn)

OUT:
1: 16.1 µM (inactive); 2: > 100 µM (inactive); 3: 16.9 µM (inactive)

Dear colleague, could you send me GI50 for each of the items below? Thanks.
1. C/C(C=O)=C/[C@@]1(C)O[C@@H](C)[C@@](C)(O)[C@@H]1O
2. N#Cc1c2c([nH]c(=O)c1C#N)CCCC2

OUT:
1. 25.2 µM (inactive)
2. > 100 µM (inactive)

Dear colleague, could you send me GI50 for each of the items below? Thanks.
1. CN(C)S(=O)(=O)Nc1ccccn1
2. OCC1OC(O)C(/N=C\c2ccc3c(c2)OCO3)C(O)C1O (stereo not drawn)
3. N#CC(C(=O)CCC(=O)Nc1ccc(Cl)cc1)c1ccccc1Cl (stereo not drawn)
4. c1ccc(-c2nc(-c3ccccc3)c(-c3ccccc3)[nH]2)cc1

OUT:
1: > 100 µM (inactive); 2: > 100 µM (inactive); 3: 32.1 µM (inactive); 4: 55.2 µM (inactive)

Dear colleague, could you send me GI50 for each of the items below? Thanks.
1. COc1ccc(/N=c2\ssc(C(=S)Nc3ccc(OC)cc3)c2S)cc1
2. CSc1ccc2c(cc1=O)[C@@H](NC(=O)c1ccc(N)cc1)CCc1cc(O)c(O)c(O)c1-2
3. N#Cc1c(N)c2c(c(-c3ccccc3)c1-c1ccccc1)C(=O)N(N)C2=O
4. CC(Cc1cccc2c1Nc1ccccc1S2)N(C)CCO (stereo not drawn)

OUT:
["> 100 µM (inactive)", "14.3 µM (inactive)", "> 100 µM (inactive)", "> 100 µM (inactive)"]
